System: 7G8
test summary: qHTS profiling for inhibitors of Plasmodium falciparum proliferation (AID 504749);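 further: 0% = DMSO vehicle and full inhibition = artemisinin control; nearly all actives have a fitted effect of over 60% in size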
experimental setup: P. falciparum in erythrocytes, SYBR Green DNA, 72 h; series mostly up to 28.7 µM
Inconclusive results are not listed. The source made the active and inactive calls. The call rests on the fitted dose curve; in most records, active means well fitted inhibition curve with a large enough effect; inconclusive means small, poorly fitted or top-dose-only effect; inactive means flat fitted curve, though single readings scatter.

compound	target entity	outcome
CCN(CC)CC1CCCCN1CC(=O)N1c2ccccc2C(=O)Nc2cccnc21 (configuration not stated)	7G8	inactive
COc1cc(C(=O)NCCCCCC(=O)O)cc(OC)c1OC	7G8	inactive
O=C(O)Cc1ccc(CCNS(=O)(=O)c2ccc(Cl)cc2)cc1	7G8	inactive
C[C@@H](N)C(=O)O	7G8	inactive
CC[N+](CC)(CC(=O)Nc1c(C)cccc1C)Cc1ccccc1	7G8	inactive
O=C(CCBr)N1CCN(C(=O)CCBr)CC1	7G8	inactive
CCc1cccc(CC)c1NC(=O)CN(CC(=O)O)CC(=O)O	7G8	inactive
Cc1ccsc1C(=CCCN1CCC[C@@H](C(=O)O)C1)c1sccc1C	7G8	inactive
Cc1ccc(S(=O)(=O)NC(=O)NC2CCCCC2)cc1	7G8	inactive
Cc1onc(-c2ccccc2)c1-c1ccc(S(N)(=O)=O)cc1	7G8	inactive
COc1ccc(C(=O)N2CCN(CC(=O)N3CCOCC3)CC2)cc1	7G8	inactive
COC(=O)c1ccc(O)cc1	7G8	inactive

====

test summary: qHTS Assay for Identifying Gametocytocidal Compounds (AID 743244);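 further: on the % scale 0 is the no-effect control and ±100 the full control effect; actives lower the fluorescent signal which means gametocytes are killed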
experimental setup: P. falciparum 3D7 stage III-V gametocytes, alamarBlue, 72 h; active compounds read low
Inconclusive results are not listed.
max response values, listed per item
measurement kind: max response (%)

molecule smiles	value measured
O=C(O)CCC(=O)O	4.69
CN(C(=O)c1c(O)c2ccccc2n(C)c1=O)c1ccccc1	-2.29
CC(=O)NCc1c(I)c(NC(C)=O)c(I)c(C(=O)O)c1I	12.1
CN1CC(=O)NC1=N	-8.6
CC(=O)[C@@]1(O)CC[C@H]2[C@@H]3C[C@H](C)C4=CC(=O)C=C[C@]4(C)[C@@]3(F)[C@@H](O)C[C@@]21C	-2.09
Cc1ccc(S(=O)(=O)NC(=O)NC2CCCCCCC2)cc1	5.01
O=C(O)CNC(=O)c1ccccc1I	-0.623
Cc1c(NC(C)C)c(=O)n(-c2ccccc2)n1C	-2.3
CN[C@@H]1[C@H](O)[C@H](NC)[C@H]2O[C@@]3(O)C(=O)C[C@@H](C)O[C@H]3O[C@@H]2[C@H]1O	2.93
Cc1ccc(C(C)C)c(O)c1	22.6

====

System: CP191
test summary: qHTS profiling for inhibitors of Plasmodium falciparum proliferation (AID 504749);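 further: 0% = DMSO vehicle and full inhibition = artemisinin control; nearly all actives have a fitted effect of over 60% in size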
experimental setup: P. falciparum in erythrocytes, SYBR Green DNA, 72 h; series mostly up to 28.7 µM
Inconclusive results are not listed. Activity calls are given as the source filed them. Calls follow the shape of the dose curve; as a rule, active = well fitted inhibition curve with a large enough effect; inconclusive = small, poorly fitted or top-dose-only effect; inactive = flat fitted curve, though single readings scatter.

molecule	outcome
C=CCNC(N)=S	inactive
O=C(c1ccccc1)C(O)c1ccccc1 (centres undefined)	inactive
O=C(O)Cc1cn(-c2ccccc2)nc1-c1ccc(Cl)cc1	inactive
CCCCOC(=O)c1ccc(N)cc1	inactive
COc1ccc(NS(=O)(=O)c2ccc(N)cc2)nn1	inactive
CCCCCCCCCCCCCCCCC(C(=O)O)C(O)(CC(=O)O)C(=O)O (centres undefined)	inactive
NC(=O)NS(=O)(=O)c1ccc(N)cc1	inactive
Cc1c(C(=O)NCCO)[n+](=O)c2ccccc2n1[O-]	inactive
Cc1c(N(C)C)c(=O)n(-c2ccccc2)n1C	inactive
c1ccc2[nH]ccc2c1	inactive
Cc1c(C)c2c(c(C)c1OC(=O)c1cccnc1)CC[C@@](C)(CCC[C@H](C)CCC[C@H](C)CCCC(C)C)O2	inactive
CCCCCC(N)=O	inactive
Nc1ccc(C(=O)Oc2ccccc2)c(O)c1	inactive
Cc1ccc(C(C)C)c(O)c1	inactive
